Entry source: the supplement of paper PMC6757056

B1: library; a variant is named by its letters at N, in order (parent)
chain: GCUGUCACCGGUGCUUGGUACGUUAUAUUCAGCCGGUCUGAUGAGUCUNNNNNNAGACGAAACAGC

Variants of: B1
Test: normalized RNA/DNA level with ligand (relative to sTRSVctl = 100) (log10 (% of sTRSVctl)); HEK293T overexpressing SLC46A1; ligand concentration (+) RNA-Seq: 6 mM; higher = less ribozyme self-cleavage, higher mRNA level
Settings: with (6R,S)-folinic acid; ligand present: yes
measurement-kind: normalized RNA/DNA level with ligand (log10)

{"seq-string": "GCUGUCACCGGUGCUUGGUACGUUAUAUUCAGCCGGUCUGAUGAGUCUCAACAUAGACGAAACAGC", "endpoint-result": 2.02}
{"seq-string": "GCUGUCACCGGUGCUUGGUACGUUAUAUUCAGCCGGUCUGAUGAGUCUAUGCUAAGACGAAACAGC", "endpoint-result": 2.01}
{"seq-string": "GCUGUCACCGGUGCUUGGUACGUUAUAUUCAGCCGGUCUGAUGAGUCUUGUUACAGACGAAACAGC", "endpoint-result": 1.99}
{"seq-string": "GCUGUCACCGGUGCUUGGUACGUUAUAUUCAGCCGGUCUGAUGAGUCUGGUGCUAGACGAAACAGC", "endpoint-result": 2.01}
{"seq-string": "GCUGUCACCGGUGCUUGGUACGUUAUAUUCAGCCGGUCUGAUGAGUCUACAGGGAGACGAAACAGC", "endpoint-result": 1.97}
{"seq-string": "GCUGUCACCGGUGCUUGGUACGUUAUAUUCAGCCGGUCUGAUGAGUCUAGCAAAAGACGAAACAGC", "endpoint-result": 2}
{"seq-string": "GCUGUCACCGGUGCUUGGUACGUUAUAUUCAGCCGGUCUGAUGAGUCUCAUUAAAGACGAAACAGC", "endpoint-result": 1.98}
{"seq-string": "GCUGUCACCGGUGCUUGGUACGUUAUAUUCAGCCGGUCUGAUGAGUCUCCUAUAAGACGAAACAGC", "endpoint-result": 2.01}
{"seq-string": "GCUGUCACCGGUGCUUGGUACGUUAUAUUCAGCCGGUCUGAUGAGUCUAUGGCGAGACGAAACAGC", "endpoint-result": 2.04}
{"seq-string": "GCUGUCACCGGUGCUUGGUACGUUAUAUUCAGCCGGUCUGAUGAGUCUGCGUGAAGACGAAACAGC", "endpoint-result": 2.03}
{"seq-string": "GCUGUCACCGGUGCUUGGUACGUUAUAUUCAGCCGGUCUGAUGAGUCUUGUCUGAGACGAAACAGC", "endpoint-result": 1.96}
{"seq-string": "GCUGUCACCGGUGCUUGGUACGUUAUAUUCAGCCGGUCUGAUGAGUCUAUCCGGAGACGAAACAGC", "endpoint-result": 2.05}
{"seq-string": "GCUGUCACCGGUGCUUGGUACGUUAUAUUCAGCCGGUCUGAUGAGUCUAACAGCAGACGAAACAGC", "endpoint-result": 2.02}
{"seq-string": "GCUGUCACCGGUGCUUGGUACGUUAUAUUCAGCCGGUCUGAUGAGUCUGUAAGAAGACGAAACAGC", "endpoint-result": 1.99}
{"seq-string": "GCUGUCACCGGUGCUUGGUACGUUAUAUUCAGCCGGUCUGAUGAGUCUCCGGACAGACGAAACAGC", "endpoint-result": 2.04}
{"seq-string": "GCUGUCACCGGUGCUUGGUACGUUAUAUUCAGCCGGUCUGAUGAGUCUAGAGAGAGACGAAACAGC", "endpoint-result": 1.97}
{"seq-string": "GCUGUCACCGGUGCUUGGUACGUUAUAUUCAGCCGGUCUGAUGAGUCUUAACCGAGACGAAACAGC", "endpoint-result": 2.01}
{"seq-string": "GCUGUCACCGGUGCUUGGUACGUUAUAUUCAGCCGGUCUGAUGAGUCUAGCCACAGACGAAACAGC", "endpoint-result": 2}
{"seq-string": "GCUGUCACCGGUGCUUGGUACGUUAUAUUCAGCCGGUCUGAUGAGUCUUGCUGUAGACGAAACAGC", "endpoint-result": 2}
{"seq-string": "GCUGUCACCGGUGCUUGGUACGUUAUAUUCAGCCGGUCUGAUGAGUCUCGUCCAAGACGAAACAGC", "endpoint-result": 2.02}
{"seq-string": "GCUGUCACCGGUGCUUGGUACGUUAUAUUCAGCCGGUCUGAUGAGUCUUCUUAAAGACGAAACAGC", "endpoint-result": 2}
{"seq-string": "GCUGUCACCGGUGCUUGGUACGUUAUAUUCAGCCGGUCUGAUGAGUCUAUUUGAAGACGAAACAGC", "endpoint-result": 2}
{"seq-string": "GCUGUCACCGGUGCUUGGUACGUUAUAUUCAGCCGGUCUGAUGAGUCUGGGCGAAGACGAAACAGC", "endpoint-result": 2.1}
{"seq-string": "GCUGUCACCGGUGCUUGGUACGUUAUAUUCAGCCGGUCUGAUGAGUCUCAUCUAAGACGAAACAGC", "endpoint-result": 2.07}
{"seq-string": "GCUGUCACCGGUGCUUGGUACGUUAUAUUCAGCCGGUCUGAUGAGUCUCAGGUGAGACGAAACAGC", "endpoint-result": 1.99}
{"seq-string": "GCUGUCACCGGUGCUUGGUACGUUAUAUUCAGCCGGUCUGAUGAGUCUUAUGGCAGACGAAACAGC", "endpoint-result": 2}
{"seq-string": "GCUGUCACCGGUGCUUGGUACGUUAUAUUCAGCCGGUCUGAUGAGUCUAGACACAGACGAAACAGC", "endpoint-result": 2.01}
{"seq-string": "GCUGUCACCGGUGCUUGGUACGUUAUAUUCAGCCGGUCUGAUGAGUCUCAACAGAGACGAAACAGC", "endpoint-result": 2.01}
{"seq-string": "GCUGUCACCGGUGCUUGGUACGUUAUAUUCAGCCGGUCUGAUGAGUCUAUACAUAGACGAAACAGC", "endpoint-result": 2.02}
{"seq-string": "GCUGUCACCGGUGCUUGGUACGUUAUAUUCAGCCGGUCUGAUGAGUCUCUCAUGAGACGAAACAGC", "endpoint-result": 1.98}
{"seq-string": "GCUGUCACCGGUGCUUGGUACGUUAUAUUCAGCCGGUCUGAUGAGUCUACUAUAAGACGAAACAGC", "endpoint-result": 2.01}
{"seq-string": "GCUGUCACCGGUGCUUGGUACGUUAUAUUCAGCCGGUCUGAUGAGUCUCUGGUGAGACGAAACAGC", "endpoint-result": 2.04}
{"seq-string": "GCUGUCACCGGUGCUUGGUACGUUAUAUUCAGCCGGUCUGAUGAGUCUUUAUGCAGACGAAACAGC", "endpoint-result": 2.02}
{"seq-string": "GCUGUCACCGGUGCUUGGUACGUUAUAUUCAGCCGGUCUGAUGAGUCUGGUGGUAGACGAAACAGC", "endpoint-result": 2.03}
{"seq-string": "GCUGUCACCGGUGCUUGGUACGUUAUAUUCAGCCGGUCUGAUGAGUCUAAAUAUAGACGAAACAGC", "endpoint-result": 2}
{"seq-string": "GCUGUCACCGGUGCUUGGUACGUUAUAUUCAGCCGGUCUGAUGAGUCUGUCUAGAGACGAAACAGC", "endpoint-result": 2.04}
{"seq-string": "GCUGUCACCGGUGCUUGGUACGUUAUAUUCAGCCGGUCUGAUGAGUCUGGUUAUAGACGAAACAGC", "endpoint-result": 1.98}
{"seq-string": "GCUGUCACCGGUGCUUGGUACGUUAUAUUCAGCCGGUCUGAUGAGUCUCAAGGCAGACGAAACAGC", "endpoint-result": 1.99}
{"seq-string": "GCUGUCACCGGUGCUUGGUACGUUAUAUUCAGCCGGUCUGAUGAGUCUUAUUCCAGACGAAACAGC", "endpoint-result": 1.99}
{"seq-string": "GCUGUCACCGGUGCUUGGUACGUUAUAUUCAGCCGGUCUGAUGAGUCUACUUCCAGACGAAACAGC", "endpoint-result": 2.06}
{"seq-string": "GCUGUCACCGGUGCUUGGUACGUUAUAUUCAGCCGGUCUGAUGAGUCUAUUGGCAGACGAAACAGC", "endpoint-result": 2.05}
{"seq-string": "GCUGUCACCGGUGCUUGGUACGUUAUAUUCAGCCGGUCUGAUGAGUCUCACCGCAGACGAAACAGC", "endpoint-result": 2.04}
{"seq-string": "GCUGUCACCGGUGCUUGGUACGUUAUAUUCAGCCGGUCUGAUGAGUCUAGUUGGAGACGAAACAGC", "endpoint-result": 1.99}
{"seq-string": "GCUGUCACCGGUGCUUGGUACGUUAUAUUCAGCCGGUCUGAUGAGUCUUCGAGAAGACGAAACAGC", "endpoint-result": 2.07}
{"seq-string": "GCUGUCACCGGUGCUUGGUACGUUAUAUUCAGCCGGUCUGAUGAGUCUCGGCUCAGACGAAACAGC", "endpoint-result": 2.04}
{"seq-string": "GCUGUCACCGGUGCUUGGUACGUUAUAUUCAGCCGGUCUGAUGAGUCUGAUACGAGACGAAACAGC", "endpoint-result": 2}
